# System: Escherichia coli TOP10
# protocol-description: shrunken log2 fold change of peptide-encoding DNA abundance (4.5 h post-induction vs induction); higher = less antimicrobial activity (less host growth inhibition)
# measurement-conditions: time post-induction: 4.5 h; library: site-saturation at positions 5, 18, 19, 20
measured-quantity: shrunken log2 fold change
Number only, no unit.

-- ask Tell me the measured shrunken log2 fold change of RRIRYRPPRLPRPRPRPHLIPRP , please.
-- reply -0.103

-- ask Also check RRIRERPPRLPRPRPRPRYMPRP
-- reply -0.785

-- ask Same thing, different sequence: RRIRARPPRLPRPRPRPNKPPRP
-- reply -0.0887

***
-- ask So what's the measured shrunken log2 fold change for this one? RRIRNRPPRLPRPRPRPYTRPRP
-- reply -0.124

====

# Test system: Escherichia coli TOP10
# protocol-description: shrunken log2 fold change of peptide-encoding DNA abundance (4.5 h post-induction vs induction); higher = less antimicrobial activity (less host growth inhibition)
# measurement-conditions: time post-induction: 4.5 h; library: site-saturation at positions 5, 18, 19, 20
Use shrunken log2 fold change to assign classes; range list: small value = under -0.2, mid value = from -0.2 up to 0.04, large value = 0.04 and over

Look over these answered cases.
-- ask Note: place this sequence into its band. Item: RRIRERPPRLPRPRPRPYRVPRP
-- reply small value

-- ask Also need RRIRERPPRLPRPRPRPRIIPRP , thanks.
-- reply large value

-- ask Next entry: RRIRQRPPRLPRPRPRPCGPPRP
-- reply mid value

-- ask Now give it for RRIRNRPPRLPRPRPRPLAPPRP too.
-- reply large value

-- ask // same read-out, input: RRIRARPPRLPRPRPRPYQFPRP
-- reply small value

---
-- ask Class label required: RRIRTRPPRLPRPRPRPTQLPRP
-- reply small value

-- ask # repeat for RRIRFRPPRLPRPRPRPCVDPRP
-- reply mid value

-- ask Please give the result for RRIRLRPPRLPRPRPRPWKPPRP too.
-- reply mid value

-- ask Request: RRIRIRPPRLPRPRPRPDVLPRP
-- reply small value

-- ask And what about the sequence RRIRDRPPRLPRPRPRPQLMPRP ?
-- reply large value

-- ask Input RRIRWRPPRLPRPRPRPAYKPRP
-- reply mid value

-- ask What about this sequence? RRIRIRPPRLPRPRPRPWAKPRP
-- reply small value

====

# Test system: Escherichia coli TOP10;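 further: peptides expressed intracellularly from a pBAD plasmid library in pooled LB shake-flask culture, induced with 0.3% L-arabinose, DNA abundance read by NGS, three biological replicates, DESeq2 with apeglm shrinkage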
# protocol-description: shrunken log2 fold change of peptide-encoding DNA abundance (4.5 h post-induction vs induction); higher = less antimicrobial activity (less host growth inhibition)
# measurement-conditions: time post-induction: 4.5 h; library: site-saturation at positions 5, 18, 19, 20
measured-quantity: shrunken log2 fold change
Lab note: jot the number down without any unit.

-- ask shrunken log2 fold change of RRIRERPPRLPRPRPRPEFSPRP on Escherichia coli TOP10?
-- reply -0.178

-- ask Then RRIRRRPPRLPRPRPRPLANPRP ?
-- reply 0.42

-- ask Repeat for the following sequence: RRIRCRPPRLPRPRPRPYKAPRP
-- reply -0.279

-- ask Proceed to RRIRQRPPRLPRPRPRPWWCPRP
-- reply -0.105

-- ask Same lookup for RRIRDRPPRLPRPRPRPSKRPRP , please.
-- reply -0.273

-- ask Also RRIRFRPPRLPRPRPRPHDPPRP ?
-- reply -0.1
